Target desc: T1, human CD33 extracellular domain (human, UniProt P20138 18-259)
T1 construct: soluble monomeric ECD; also called human CD33 ECD; hCD33
Test details: SPR, Fab captured, 37C;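 note: surface plasmon resonance with Fabs captured on anti-Fab surface, soluble monomeric CD33 as analyte at several concentrations, double-referenced 1:1 model fit, KD as koff/kon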
koff for assorted binders

# Binder, koff
records = [
    ("ADI-11819 Fab (Fab, V domains shown, Fab fragment; also called Ab8) VH: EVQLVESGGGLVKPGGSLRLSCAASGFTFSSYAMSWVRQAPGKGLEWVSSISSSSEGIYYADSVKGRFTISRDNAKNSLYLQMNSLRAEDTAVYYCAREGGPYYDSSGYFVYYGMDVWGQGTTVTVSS VL: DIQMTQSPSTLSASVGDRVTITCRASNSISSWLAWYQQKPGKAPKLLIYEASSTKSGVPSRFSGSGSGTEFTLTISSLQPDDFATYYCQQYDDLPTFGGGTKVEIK", "5.65e-05 s⁻¹"),
]

Notebook: ADI-11807 Fab (Fab, V domains shown, Fab fragment; also called Ab5; I07) VH: EVQLVESGGGLVQPGGSLRLSCAASGFTFGSYWMSWVRQAPGKGLEWVATIKQDGSEKSYVDSVKGRFTISRDNAKNSLYLQMNSLRAEDTAVYYCARPLNAGELDVWGQGTMVTVSS VL: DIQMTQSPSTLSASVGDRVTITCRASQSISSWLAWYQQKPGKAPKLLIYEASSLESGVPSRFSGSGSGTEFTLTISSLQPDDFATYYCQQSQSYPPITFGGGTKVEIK , koff read as 0.000332 s⁻¹

Notebook: ADI-11830 Fab (Fab, V domains shown, Fab fragment; also called Ab9) VH: EVQLVESGGGLVQPGGSLRLSCAASGFTFSSYWMSWVRQAPGKGLEWVANINTDGSEVYYVDSVKGRFTISRDNAKNSLYLQMNSLRAEDTAVYYCARDVGPGIAYQGHFDYWGQGTLVTVSS VL: DIQMTQSPSSLSASVGDRVTITCRASQVIYSYLNWYQQKPGKAPKLLIYAASSLKSGVPSRFSGSGSGTDFTLTISSLQPEDFATYYCQQVYDTPLTFGGGTKVEIK , koff read as 0.00547 s⁻¹

Notebook: ADI-11825 Fab (Fab, V domains shown, Fab fragment; also called Ab25) VH: EVQLVESGGGLVQPGGSLRLSCAASGFTFGGYWMSWVRQAPGKGLEWVANINQDGSEEYYVDSVKGRFTISRDNAKNSLYLQMNSLRAEDTAVYYCAREANYYGNVGDDYWGQGTLVTVSS VL: DIQMTQSPSSLSASVGDRVTITCRASQSIYNYLNWYQQKPGKAPKLLIYAASNLHSGVPSRFSGSGSGTDFTLTISSLQPEDFATYYCQQAFHVPITFGGGTKVEIK , koff read as 0.0038 s⁻¹

Notebook: ADI-10164 Fab (Fab, V domains shown, Fab fragment; also called Ab18) VH: QVQLQESGPGLVKPSETLSLTCAVSGYSISSGYYWGWIRQPPGKGLEWIGSIYHSGSTNYNPSLKSRVTISVDTSKNQFSLKLSSVTAADTAVYYCARLPPWFGFSYFDLWGRGTLVTVSS VL: EIVLTQSPATLSLSPGERATLSCRASQSVSSYLAWYQQKPGQAPRLLIYDASNRATGIPARFSGSGSGTDFTLTISSLEPEDFAVYYCQQVDNYPPTFGGGTKVEIK , koff read as 0.0101 s⁻¹

Data origin, for the record: patent US20220380459A1
